Ref: patent US20250243286A1

target: ActRIIA and ActRIIB (on TGFB/SMAD SBE Reporter HEK293 cells) (human); test: cell-based or functional assay
Sequence (chain, as listed by the source, chain 1 of 2): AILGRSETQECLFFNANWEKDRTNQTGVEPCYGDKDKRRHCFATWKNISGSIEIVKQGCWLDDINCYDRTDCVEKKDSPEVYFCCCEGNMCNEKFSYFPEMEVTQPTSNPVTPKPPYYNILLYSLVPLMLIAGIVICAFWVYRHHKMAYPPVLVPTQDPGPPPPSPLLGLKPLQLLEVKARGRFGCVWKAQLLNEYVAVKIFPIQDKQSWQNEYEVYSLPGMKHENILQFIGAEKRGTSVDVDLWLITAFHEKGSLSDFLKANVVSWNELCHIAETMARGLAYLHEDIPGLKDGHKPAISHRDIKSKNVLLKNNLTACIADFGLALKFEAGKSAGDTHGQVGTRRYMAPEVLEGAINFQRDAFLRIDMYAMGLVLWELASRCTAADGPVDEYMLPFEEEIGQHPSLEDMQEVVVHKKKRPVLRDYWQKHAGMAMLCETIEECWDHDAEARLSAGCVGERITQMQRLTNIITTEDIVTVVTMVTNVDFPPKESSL
Sequence (chain, as listed by the source, chain 2 of 2): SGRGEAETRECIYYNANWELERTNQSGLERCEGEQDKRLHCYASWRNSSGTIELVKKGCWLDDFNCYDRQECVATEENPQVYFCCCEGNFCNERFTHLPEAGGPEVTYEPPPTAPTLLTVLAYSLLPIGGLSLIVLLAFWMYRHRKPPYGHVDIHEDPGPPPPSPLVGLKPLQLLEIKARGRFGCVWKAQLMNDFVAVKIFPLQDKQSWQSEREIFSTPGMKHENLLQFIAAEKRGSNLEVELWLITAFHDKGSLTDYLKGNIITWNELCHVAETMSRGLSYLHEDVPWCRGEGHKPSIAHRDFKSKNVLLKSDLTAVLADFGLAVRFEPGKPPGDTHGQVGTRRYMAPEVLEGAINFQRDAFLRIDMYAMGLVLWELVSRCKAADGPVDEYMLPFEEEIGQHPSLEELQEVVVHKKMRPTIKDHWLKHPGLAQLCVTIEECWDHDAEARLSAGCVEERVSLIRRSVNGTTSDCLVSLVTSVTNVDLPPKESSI
Readings of IC90, Activin SMAD RGA for the listed binders
Write down the numeric answer in nM and omit the unit.

binder="Antibody Schwardamaga (antibody, V domains shown, full-length IgG) VH: QVQLVQSGAEVKKPGSSVKVSCKASGYTFTSSYINWVRQAPGQGLEWMGTINAVSGSTSYAQKFQGRVTITADTSTSTAYMELSSLRSEDTAVYYCARGGWFDYWGQGTLVTVSS VL: QSALTQPRSVSGSPGQSVTISCTGTSSDVGSANYVNWYQQHPGKAPKPMIYGVSRRPSGVPDRFSGSKSGNTASLTISGLQAEDEADYYCGTFAGGKYYGVFGGGTKLTVL" recorded_result=5.34
binder="Antibody Bäradreck (antibody, V domains shown, full-length IgG) VH: QVQLVQSGAEVKKPGSSVKVSCKASGYTFTSSYINWVRQAPGQGLEWMGTINPVSGSTSYAQKFQGRVTITADTSTSTAYMELSSLRSEDTAVYYCARGGWFDYWGQGTLVTVSS VL: QSALTQPRSVSGSPGQSVTISCTGTSSDVGSYNYVNWYQQHPGKAPKLMIYGVSKRPSGVPDRFSGSKSGNTASLTISGLQAEDEADYYCGTFAGGSYYGVFGGGTKLTVL" recorded_result=4.99

For Antibody Wurschdsalat (antibody, V domains shown, full-length IgG) VH: QVQLVQSGAEVKKPGASVKVSCKASGYTFTSSYINWVRQAPGQGLEWMGTINAVSGSTSYAQKFQGRVTMTRDESISTAYMELSRLRSDDTAVYYCARGGWFDYWGQGTLVTVSS VL: QSALTQPASVSGSPGQSITISCTGTSSDVGSYNYVNWYQQHPGKAPKLMIYGVSKRESGVSNRFSGSKSGNTASLTISGLQAEDEADYYCGTFAGGKYYGVFGGGTKLTVL the binder record lists IC90, Activin SMAD RGA as 1.9
